Observed pKi values for Human NPY Y5 receptors (Homo sapiens, UniProt Q15761) are listed in what follows.
Give bare numbers, as −log10 of the molar value.

Observe how each entry below is paired with its result.
{"compound": "COC(=O)c1cccc(-c2nc(-c3cccc(C(F)(F)F)c3)c[nH]2)c1 [Example 1B]", "pKi": 7.28}
{"compound": "CN(c1cccc(-c2nc(-c3cccc(C(F)(F)F)c3)c[nH]2)c1)S(C)(=O)=O [Example 6A]", "pKi": 8.68}

Go through the list and state pKi for each entry.
1. FC(F)(F)c1cccc(-c2c[nH]c(-c3cccc(CN4CCCCC4)c3)n2)c1 [Example 3]
2. O=C(Nc1cccc(-c2nc(-c3cccc(C(F)(F)F)c3)c[nH]2)c1)c1ccccc1 [Example 10A]
3. CS(=O)(=O)N1CCC(c2nc(-c3cc(Cl)cc(Cl)c3)c[nH]2)CC1 [Example 21C]
4. FC(F)(F)c1cccc(-c2c[nH]c(N3CCN(c4ccccn4)CC3)n2)c1 [Example 26]

Solution:
1. 7.77
2. 7.20
3. 8.70
4. 8.85

meta.source: patent US6632828B2
